Listed here are binders together with their documented IC50, pseudovirus neutralization (TZM-bl).
- target under test: HIV-1 Env of isolate CAAN (HIV-1)
- test method notes: cell-based or functional assay
observed property: IC50, pseudovirus neutralization (TZM-bl) (µg/mL)

binder	unit	reported
1469_M23 (PG16) (TCN-118) (antibody, V domains shown) VH: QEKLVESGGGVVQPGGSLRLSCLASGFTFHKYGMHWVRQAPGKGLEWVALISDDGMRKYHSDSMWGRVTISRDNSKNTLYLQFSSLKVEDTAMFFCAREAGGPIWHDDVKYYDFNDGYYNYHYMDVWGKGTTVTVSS VL: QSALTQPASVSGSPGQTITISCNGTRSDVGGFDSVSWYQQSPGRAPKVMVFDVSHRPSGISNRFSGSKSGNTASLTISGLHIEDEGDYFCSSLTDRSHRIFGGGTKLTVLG	µg/mL	17.7
1503_H05 (PG16) (TCN-119) (antibody, V domains shown) VH: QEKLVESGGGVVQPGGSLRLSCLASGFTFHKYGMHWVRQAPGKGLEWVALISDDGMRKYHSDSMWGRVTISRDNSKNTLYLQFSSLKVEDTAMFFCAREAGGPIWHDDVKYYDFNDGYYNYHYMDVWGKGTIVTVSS VL: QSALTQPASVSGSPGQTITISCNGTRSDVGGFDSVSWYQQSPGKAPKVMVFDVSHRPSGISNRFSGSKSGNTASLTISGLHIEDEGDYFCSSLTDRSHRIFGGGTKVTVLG	µg/mL	13.5
1489_I13 (PG16) (TCN-120) (antibody, V domains shown) VH: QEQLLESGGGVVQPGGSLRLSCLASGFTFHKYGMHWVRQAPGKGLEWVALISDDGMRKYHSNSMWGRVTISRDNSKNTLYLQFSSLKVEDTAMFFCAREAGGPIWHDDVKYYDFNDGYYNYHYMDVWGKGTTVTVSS VL: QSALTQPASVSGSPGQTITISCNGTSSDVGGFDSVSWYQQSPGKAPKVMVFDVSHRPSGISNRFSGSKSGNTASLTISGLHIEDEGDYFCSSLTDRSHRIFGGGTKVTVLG	µg/mL	24.9
1456_A12 (PG16) (TCN-117) (antibody, V domains shown) VH: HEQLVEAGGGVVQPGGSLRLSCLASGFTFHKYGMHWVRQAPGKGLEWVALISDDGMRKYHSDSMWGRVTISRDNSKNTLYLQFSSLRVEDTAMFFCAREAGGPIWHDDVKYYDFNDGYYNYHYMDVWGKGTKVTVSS VL: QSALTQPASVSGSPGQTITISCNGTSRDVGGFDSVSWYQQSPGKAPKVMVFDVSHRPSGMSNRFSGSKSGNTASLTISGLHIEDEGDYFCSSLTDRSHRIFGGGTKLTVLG	µg/mL	10.6
